Biological target: Insulin-like growth factor 1 receptor (IGF1R) (UniProt P08069 31-1367, limits assumed)
Sequence (P08069 31-1367 limits assumed): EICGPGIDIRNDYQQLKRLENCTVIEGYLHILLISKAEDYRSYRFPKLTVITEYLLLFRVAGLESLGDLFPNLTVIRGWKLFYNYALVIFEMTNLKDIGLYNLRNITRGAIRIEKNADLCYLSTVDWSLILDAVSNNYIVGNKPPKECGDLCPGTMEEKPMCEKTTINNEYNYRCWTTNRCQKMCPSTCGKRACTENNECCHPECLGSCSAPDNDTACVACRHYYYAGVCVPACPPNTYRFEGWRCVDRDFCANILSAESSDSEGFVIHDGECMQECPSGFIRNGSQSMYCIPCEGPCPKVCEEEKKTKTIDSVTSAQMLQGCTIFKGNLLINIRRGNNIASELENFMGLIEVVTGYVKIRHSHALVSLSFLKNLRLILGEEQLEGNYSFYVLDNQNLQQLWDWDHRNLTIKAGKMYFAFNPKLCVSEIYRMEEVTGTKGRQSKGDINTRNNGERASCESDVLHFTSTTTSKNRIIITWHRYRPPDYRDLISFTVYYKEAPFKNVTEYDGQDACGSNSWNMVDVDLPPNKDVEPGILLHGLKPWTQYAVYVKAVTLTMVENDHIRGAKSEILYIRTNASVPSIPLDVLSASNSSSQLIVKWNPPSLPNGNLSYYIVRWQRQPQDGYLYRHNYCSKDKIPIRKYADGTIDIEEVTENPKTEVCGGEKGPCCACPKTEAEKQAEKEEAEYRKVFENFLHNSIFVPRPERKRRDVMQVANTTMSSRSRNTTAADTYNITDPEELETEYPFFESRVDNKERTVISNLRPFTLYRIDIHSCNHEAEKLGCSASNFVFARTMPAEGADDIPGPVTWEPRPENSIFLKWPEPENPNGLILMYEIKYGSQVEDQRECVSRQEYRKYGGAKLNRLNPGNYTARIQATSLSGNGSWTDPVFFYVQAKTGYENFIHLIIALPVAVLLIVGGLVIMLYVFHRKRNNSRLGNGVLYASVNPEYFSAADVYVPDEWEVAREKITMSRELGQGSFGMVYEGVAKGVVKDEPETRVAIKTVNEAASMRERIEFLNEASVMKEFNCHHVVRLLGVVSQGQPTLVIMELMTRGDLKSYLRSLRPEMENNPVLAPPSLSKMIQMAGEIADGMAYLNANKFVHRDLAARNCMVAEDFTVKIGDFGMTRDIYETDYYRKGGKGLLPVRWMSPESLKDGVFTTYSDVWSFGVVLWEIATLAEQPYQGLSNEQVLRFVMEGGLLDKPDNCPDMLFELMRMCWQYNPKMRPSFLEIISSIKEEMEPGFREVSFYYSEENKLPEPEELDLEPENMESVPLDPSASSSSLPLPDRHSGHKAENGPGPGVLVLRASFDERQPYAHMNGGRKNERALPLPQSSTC
Test: cell-based or functional assay
The star is where a group is joined. Palmitoyl = CCCCCCCCCCCCCCCC(=O)*
Test readout: TGI (µM), MTT assay, MCF-7 cells
Response body: numeric value in µM, unit text excluded.

[[record]]
binder = "Palmitoyl-RNNSRLGNGVLYASV-NH2 (not fully specified; printed as Pal-RNNSRLGNGVLYASV-NH2) [peptide 35 (Pal-RNNSRLGNGVLYASV-NH2)]"
test_readout = "TGI (µM), MTT assay, MCF-7 cells"
result_number = 2.5


From here, focus on the item given below.
Query: Tell me the measured TGI (µM), MTT assay, MCF-7 cells of Palmitoyl-NSRLGNGVLY-NH2 (SMILES CCCCCCCCCCCCCCCC(=O)N[C@@H](CC(N)=O)C(=O)N[C@@H](CO)C(=O)N[C@@H](CCCNC(=N)N)C(=O)N[C@@H](CC(C)C)C(=O)NCC(=O)N[C@@H](CC(N)=O)C(=O)NCC(=O)N[C@H](C(=O)N[C@@H](CC(C)C)C(=O)N[C@@H](Cc1ccc(O)cc1)C(N)=O)C(C)C) [peptide 17 (Pal-NSRLGNGVLY-NH2)] , please.
Reply: 1.5
